# System: PXR homodimer (NR concentration 270 nM)
# run-description: PBM binding z-score (relative to random genomic background probes); higher = stronger binding; sequences stand for … in GC…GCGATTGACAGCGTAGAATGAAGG
I'd be grateful if you could share measured PBM binding z-score for these entries.
In your answer, state the number alone without any accompanying words.

What the record says about `CCTACAGGGCCATCAGGTCATTGATATCAACGTT` : PBM binding z-score is 0.581

The sequence `CCTCGGAGGACAACAGGAGGTCAGTGCTGCCAGA` showed PBM binding z-score equal to 0.131

The recorded PBM binding z-score for `GCTGCTGGGTCAACTGATGGTCAGCTAAAGCTCG` is -0.46

The sequence identified as `CGAACGAGGGCATGAGTCGATAGCAAATGCCGAT` registered its PBM binding z-score at -0.737

Short answer for `TAGCCTAGGTCATTTAGGGGCCAGTATAGAAAGC` : PBM binding z-score was -0.166

Short answer for `CTCTAAAGGTCGGTTGAGGTGAGTATACGGATAA` : PBM binding z-score was 0.187

Summary for this sequence, `ACAGATAGGTGAGTGAAGGTAACTCAGCTGGACG` : PBM binding z-score is -0.159

Noted for `CCTAGTTGGTCAAGGTCACAAACGCTATAGGTAC` : its PBM binding z-score reads 1.93

Record `ACAGACAGGTGAGTGAAGATAACTCAGCTGGACG` , field PBM binding z-score: -0.597

Noted for `CGTTACGGGTCACGAGGTTATAGCACGACGAGCG` : its PBM binding z-score reads 0.178

PBM binding z-score reported for this sequence `CGTCAAAGTTCAACGTAACGTAACAGAAAGCAGC` : 2.41

Record `CCTTTCGGGTCAAGGTTATAGCACGGGTGGTACG` , field PBM binding z-score: 0.171

Please fill in: PBM binding z-score reported for `TCTATTAGTTGATTAGGACAACCGAAACAGCGGA` = 0.881

Short answer for `ATATGTAGGTCACATCCGGGTCATTCAGGCTATG` : PBM binding z-score was 2.96

Entry `GCTGCTAGGGCAGGTTGGTCAGCTAACGGGTACG` , PBM binding z-score reported as -0.597

Per the records, this sequence ( `TCGGACAGGTGAAGGTAACTCAGGTACGCAGTCG` ) has PBM binding z-score equal to 0.228

The recorded PBM binding z-score for `GCTATTAGTTGAAGGGGCAACCGAATGATTCTCG` is -0.028

Per the records, this sequence ( `CCTAGTTGGTCAAGGACACACACGCTATAGGTAC` ) has PBM binding z-score equal to 0.977

# PBM binding z-score of `CCTTACGGGTCACGAGGTTATTGCACGACGAGCG` = 0.56

Kindly note the recorded PBM binding z-score for `CCTCGGAGGACAGAAGGTGAGAGCTGTCCGCTTT` , which is -0.684

Entry `CGTCCAAGGTGAAGGTCAGTGAAAGAGACTCGAA` ; PBM binding z-score = -0.222

Looking up `TCATATAGGTAAATGCTAGGTCAAAGTCCGATCT` , I found its PBM binding z-score recorded as 1.11

Value of PBM binding z-score reported for the sequence `GCATATATGTAATACAAGGTGAAAGTCCGATTGT` is 0.0966

Recorded PBM binding z-score (sequence `GCTATTAGTTGAAAGGGCAACTGAATGATTCTCG` ): 0.252

The recorded PBM binding z-score for `TAGCCTAGGTCATTCAGGGGCCAGTATTGAAAGC` is -0.361

# sequence `CGTCCAAGGTCAGCAGGGCAGTGAAAGCGACGTG` ; its PBM binding z-score = 0.00417

PBM binding z-score measured on `CCTACTTGGCCAAAAAGGTCATTGATGCCGATAA` = 2.68

Entry `ATCGAAAGGCCGAGGTGAGTATAGAGAAAGGGAA` — recorded PBM binding z-score = 0.0633

Sample `TCATATAGGTAAAGGTGAAGGTCGAACGATATGA` ; PBM binding z-score observed: 0.53

Form field PBM binding z-score, entry `CATACAGGGTCTGCTAGGCCAGAGTAGGGACGGC` : -0.0998

Given item `CCTAGTTGGTCAGCAGGTCACACACCGGATATGA` , the value recorded as its PBM binding z-score is 0.562

Data point: `CCAGACAGGTGAAAGATAACTCAGTCTGGTACGC` ; PBM binding z-score = 0.127

// field: PBM binding z-score; key: `ACTATTAGTTGAGACGAGGGGAACCGATAGGTTG` ; value = 0.29

Reported PBM binding z-score for `CCTACTGGGCCATCAGCTCATTGATATCAACGTT` was -0.788

Reported PBM binding z-score for `TCTGCTCGGTCAGTTGGTCAGCTAACGAGCTGCC` was -1.11

Noted for `TGAATGAGGGTATAAGATCAGGGAACGTTGCAAA` : its PBM binding z-score reads 0.202

Form field PBM binding z-score, entry `TTACCAAGGTGAAAGGTAGTTGATGCACGCCTTG` : -0.0575

Sample `AGAACGAGGGCAATGAATTGATAGCACGGGTGGC` ; PBM binding z-score observed: 0.123

Looking up `GGAACGAGGGCATTCGAGTTTATAGCATGGCGAT` , I see its PBM binding z-score listed as 7.33

# sequence `TTACAAAGGTGAAGGTCGTTGATCCCTCTGTAGA` ; its PBM binding z-score = 0.241

Notebook: `CCAACTGGGCCACGAAAGGTCATTGATTCAGTGA` , PBM binding z-score read as 1.31

Measured PBM binding z-score, `TCTTGTAGATCAATAGAGGTTCAGAAAGTGCGCT` : 0.746

Documented PBM binding z-score of `CAGCCTATGTCAGGGCCAGTATAGGAGGAACGTT` : -0.46

Item: `ATCTCTAGGTAAAGTTCAGTCAAAGATCGATAGA` | PBM binding z-score: 1.93

In plain terms, `CCTACTGGGCCAAAGGTCAATGATTCCAATGCTC` has a documented PBM binding z-score of 0.657

Lab note: `TCATATAGGGAAAGGTGAAAGTCGAACGATATGA` gave PBM binding z-score of 0.00313

sequence `GCTTACGGGTCAAAGGTTATACCATGAATAGAAT` , PBM binding z-score observed: 0.691

The sequence listed as `GATACAGGGTCAAGGACAGAGTACGCGTATTGAT` shows PBM binding z-score equal to 0.786

// recorded PBM binding z-score for `GCAGACAGGTGAAACGCAGGTCACTCAGGGTGGC` : -0.357

Entry `CGAACGAGGGCATGACTTGATAGCAAATGCCGAT` ; PBM binding z-score = -0.361

// `TCTAGCAGACCAGAGGGTCACTCAAGAGGTACGG` : PBM binding z-score value = -0.694
